Biological target: h-DHODH (Homo sapiens)
Construct: endogenous in cells; host or cells: U937 cells (membrane fraction, solubilised with 1% octyl glucoside)
Sequence (Q02127 whole entry): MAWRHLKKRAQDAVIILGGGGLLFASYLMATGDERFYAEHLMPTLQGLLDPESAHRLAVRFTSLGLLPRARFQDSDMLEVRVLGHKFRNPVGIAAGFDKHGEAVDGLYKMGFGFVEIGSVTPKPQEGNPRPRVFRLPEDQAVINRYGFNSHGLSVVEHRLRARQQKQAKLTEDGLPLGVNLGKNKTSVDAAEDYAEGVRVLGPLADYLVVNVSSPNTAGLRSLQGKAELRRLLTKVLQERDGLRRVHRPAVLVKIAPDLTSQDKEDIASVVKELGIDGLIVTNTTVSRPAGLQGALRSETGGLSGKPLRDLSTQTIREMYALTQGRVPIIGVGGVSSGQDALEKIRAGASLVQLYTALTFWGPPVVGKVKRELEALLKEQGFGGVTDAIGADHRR
Assay: Dihydro-orotate dehydrogenase inhibition assay (U937 membrane preparations, DCIP reduction)
Type: biochemical
Conditions: 1 uM; U937 membrane preparation
// reported inhibition at 1 µM for each item listed
reported property: inhibition at 1 µM (%)

INSERT INTO measurements (smiles_string, experimental_system, value_observed) VALUES
  ('O=C(O)c1ccccc1C(=O)Nc1c(F)cc(-c2cccc(OC3CCCC3)c2)cc1F', 'h-DHODH (Homo sapiens)', 72.2),
  ('O=C(O)c1ccccc1C(=O)Nc1c(Cl)cc(-c2ccccc2F)cc1Cl', 'h-DHODH (Homo sapiens)', 40.2),
  ('Cc1c[nH]c2ccc(-c3cc(F)c(NC(=O)c4ccccc4C(=O)O)c(F)c3)cc12', 'h-DHODH (Homo sapiens)', 76.7),
  ('CCCOc1cccc(-c2cc(F)c(NC(=O)c3ccccc3C(=O)O)c(Cl)c2)c1', 'h-DHODH (Homo sapiens)', 82.2),
  ('CCCc1c[nH]c2ccc(-c3cc(F)c(NC(=O)c4ccccc4C(=O)O)c(F)c3)cc12', 'h-DHODH (Homo sapiens)', 42.6),
  ('COc1cccc(-c2cc(F)c(NC(=O)c3cc(Cl)c(Cl)cc3C(=O)O)c(F)c2)c1', 'h-DHODH (Homo sapiens)', 28),
  ('CCCCOc1cccc(-c2cc(F)c(NC(=O)c3ccccc3C(=O)O)c(F)c2)c1', 'h-DHODH (Homo sapiens)', 86.5),
  ('CCOc1cccc(-c2cc(F)c(NC(=O)c3c(Cl)ccc(Cl)c3C(=O)O)c(F)c2)c1', 'h-DHODH (Homo sapiens)', 12.9);

Reference source for all entries: patent US8686048B2
